assayed system: Neu5Ac(a2-6)GalNAc
test description: glycan array binding signal (z-score within array); higher = stronger binding
condition set: glycan notation: IUPAC condensed, linker removed
The full list was thinned out, with the strongest signals kept by preference.

>  <binder>
SLP (Clostridium difficile), Q183M8 (protein) MATTGTQGYTVVKNDWKKAVKQLQDGLKDNSIGKITVSFNDGVVGEVAPKSANKKADRDAAAEKLYNLVNTQLDKLGDGDYVDFSVDYNLENKIITNQADAEAIVTKLNSLNEKTLIDIATKDTFGMVSKTQDSEGKNVAATKALKVKDVATFGLKSGGSEDTGYVVEMKAGAVEDKYGKVGDSTAGIAINLPSTGLEYAGKGTTIDFNKTLKVDVTGGSTPSAVAVSGFVTKDDTDLAKSGTINVRVINAKEESIDIDASSYTSAENLAKRYVFDPDEISEAYKAIVALQNDGIESNLVQLVNGKYQVIFYPEGKRLETKSLEHHHHHH

>  <glycan array binding signal (z-score)>
-0.177

$$$$
